Molecular target: LTD4 (Cavia porcellus, UniProt Q2NNR5)
Construct: isolated guinea pig trachea; from tissue; host or cells: guinea pig tracheal rings
Sequence (Q2NNR5 whole entry): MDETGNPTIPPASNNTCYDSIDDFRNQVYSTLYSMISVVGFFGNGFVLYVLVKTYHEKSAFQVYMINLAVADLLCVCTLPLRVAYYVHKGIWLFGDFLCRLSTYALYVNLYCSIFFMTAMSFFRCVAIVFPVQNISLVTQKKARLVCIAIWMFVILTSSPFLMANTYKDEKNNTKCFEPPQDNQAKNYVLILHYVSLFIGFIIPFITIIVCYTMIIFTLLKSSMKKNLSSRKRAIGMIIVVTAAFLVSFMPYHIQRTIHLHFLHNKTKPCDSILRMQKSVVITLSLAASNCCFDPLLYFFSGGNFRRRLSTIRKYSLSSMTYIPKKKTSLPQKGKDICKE
Assay: inhibition of LTD4-induced bronchospasm in guinea pigs
Format: in vivo
Conditions: 25 mg/kg intraduodenally, 10 minutes before LTD4; guinea pig
Attribute Measured: % Inhibition (LTD4-induced bronchospasm) (%)
Give a bare numeral; the unit % is implied.

CC(C(=O)O)c1ccc2cc(OCc3ccc4ccccc4n3)ccc2c1 (stereo not shown) :: 75
CC(C(=O)O)c1ccc2cc(OCc3nc4ccccc4n3C)ccc2c1 (stereo not shown) :: 80
CC(C(=O)O)c1ccc2cc(OCc3ccccn3)ccc2c1 (stereo not shown) :: 52

Lab note: next compound to report on.
Prompt: # assay system LTD4 (Cavia porcellus, UniProt Q2NNR5): give % Inhibition (LTD4-induced bronchospasm) of CC(C(=O)O)c1ccc2cc(OCc3ccccc3)ccc2c1 (stereo not shown)
Response: -76

====

Molecular target: 5-lipoxygenase (Homo sapiens)
Construct: Blood is obtained in 50-100 ml quantities from male donors; endogenous in cells; host or cells: human whole blood (leukocytes) from male donors
Sequence (P09917 whole entry): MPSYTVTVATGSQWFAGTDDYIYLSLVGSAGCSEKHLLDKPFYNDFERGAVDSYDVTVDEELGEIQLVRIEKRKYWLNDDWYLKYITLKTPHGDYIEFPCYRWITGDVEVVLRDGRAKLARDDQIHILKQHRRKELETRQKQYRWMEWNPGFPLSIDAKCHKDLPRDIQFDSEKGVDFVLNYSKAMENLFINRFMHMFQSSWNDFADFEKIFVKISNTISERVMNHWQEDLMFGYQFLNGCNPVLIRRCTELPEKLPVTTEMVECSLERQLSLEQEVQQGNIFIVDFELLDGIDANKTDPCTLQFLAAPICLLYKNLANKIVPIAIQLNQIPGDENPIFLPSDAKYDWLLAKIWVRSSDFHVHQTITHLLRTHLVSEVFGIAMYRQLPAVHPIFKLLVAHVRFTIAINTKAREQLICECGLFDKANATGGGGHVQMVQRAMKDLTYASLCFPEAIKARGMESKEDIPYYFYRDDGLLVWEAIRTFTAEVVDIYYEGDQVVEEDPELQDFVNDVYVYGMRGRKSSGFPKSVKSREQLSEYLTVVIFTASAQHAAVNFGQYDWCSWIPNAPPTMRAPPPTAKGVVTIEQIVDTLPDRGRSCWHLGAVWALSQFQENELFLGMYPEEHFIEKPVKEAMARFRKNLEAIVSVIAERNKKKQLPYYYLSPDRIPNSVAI
Test: inhibition of 5-lipoxygenase in human whole blood (LTB4)
Format: cell-based
Conditions: 25 μM; human whole blood
Label Criterion met when inhibition at 25 µM is at or above 80%; anything below gets Criterion not met.

Example results:
CC(NC(=O)NO)c1ccc2cc(OCc3csc(-c4ccccc4)n3)ccc2c1 (single isomer, unassigned; (-)) [Example 36] :: Criterion met
CC(C)(NC(=O)NO)c1ccc2cc(OCc3nc4ccccc4s3)ccc2c1 [Example 37] :: Criterion not met
C[C@H](C(=O)O)c1ccc2cc(OCc3nc4ccccc4n3C)ccc2c1 [Example 43] :: Criterion not met
C[C@H](C(=O)O)c1ccc2cc(OCc3ccc4ccccc4n3)ccc2c1 [Example 17] :: Criterion not met
C[C@H](C(=O)N(C)O)c1ccc2cc(OCc3csc(-c4ccccc4)n3)ccc2c1 [Example 39] :: Criterion met
C[C@H](C(=O)O)c1ccc2cc(OCc3csc(-c4ccccc4)n3)ccc2c1 [Example 35] :: Criterion not met
C[C@H](C(=O)N(C)O)c1ccc2cc(OCc3ccccn3)ccc2c1 [Example 44] :: Criterion met

Prompt: Is reported inhibition at 25 µM greater than or equal to 80% here: C[C@H](C(=O)N(C)O)c1ccc2cc(OCc3nc4ccccc4n3C)ccc2c1 [Example 45]
Response: Criterion not met

====

Target: 5-lipoxygenase (Rattus norvegicus)
Construct: Peritoneal PMN are obtained from female Wistar rats (150-250 g); endogenous in cells; host or cells: rat glycogen-elicited peritoneal polymorphonuclear leukocytes, intact
Sequence (P12527 1-673): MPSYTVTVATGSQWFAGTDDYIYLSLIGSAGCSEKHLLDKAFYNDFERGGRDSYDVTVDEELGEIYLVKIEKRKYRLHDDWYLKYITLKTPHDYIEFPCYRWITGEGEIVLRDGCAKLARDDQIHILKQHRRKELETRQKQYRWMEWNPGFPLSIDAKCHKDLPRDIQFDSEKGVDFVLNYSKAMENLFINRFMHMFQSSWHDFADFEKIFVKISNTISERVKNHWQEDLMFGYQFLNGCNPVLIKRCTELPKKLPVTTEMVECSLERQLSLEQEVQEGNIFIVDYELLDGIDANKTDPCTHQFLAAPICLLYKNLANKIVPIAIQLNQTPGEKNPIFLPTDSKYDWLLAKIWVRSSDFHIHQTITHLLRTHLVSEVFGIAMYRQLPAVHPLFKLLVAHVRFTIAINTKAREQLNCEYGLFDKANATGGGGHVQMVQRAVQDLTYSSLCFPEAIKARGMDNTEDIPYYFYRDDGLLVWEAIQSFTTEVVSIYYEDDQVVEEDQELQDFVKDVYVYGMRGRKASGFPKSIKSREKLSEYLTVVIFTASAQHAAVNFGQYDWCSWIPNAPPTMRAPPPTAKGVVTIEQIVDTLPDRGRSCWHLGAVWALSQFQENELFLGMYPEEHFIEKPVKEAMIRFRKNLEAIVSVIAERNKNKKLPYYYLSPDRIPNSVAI
Assay: inhibition of 5-HETE synthesis by rat glycogen elicited polymorphonuclear leukocytes
Assay type: cell-based
Conditions: 10 μM; rat PMN; negative = potentiation of 5-HETE synthesis; read-out: % Inhibition of 5-LO (as 5-HETE)
Overview of recorded inhibition at 10 µM for various compounds
Give a bare numeral; the unit % is implied.

Use the examples below as a reference point.
CC(C(=O)O)c1ccc2c(Br)c(OCc3ccc4ccccc4n3)ccc2c1 (centres unmarked) :: 82
CC(C(=O)O)c1ccc2cc(OCc3nc4ccccc4n3C)ccc2c1 (centres unmarked) :: 24
C[C@H](CO)c1ccc2cc(OCc3ccc4ccccc4n3)ccc2c1 :: 97

Prompt: Look up and report measured inhibition at 10 µM for this entry: CC(C)=CCOc1ccc2cc(C(C)C(=O)O)ccc2c1 (centres unmarked)
Response: 81

Prompt: Look up and report measured inhibition at 10 µM for this entry: `C[C@H](C=O)c1ccc2cc(OCc3ccc4ccccc4n3)ccc2c1`
Response: 100

====

Tested on: cyclooxygenase
Assay: inhibition of synthesis of cyclooxygenase products TxB2 and PGE2 (rat polymorphonuclear leukocytes)
Type: cell-based
Details: 10 μM; rat PMN; negative = potentiation of PGE2 synthesis
Attribute Measured: % Inhibition of CO (as PGE2) (%)
Give a bare numeral; the unit % is implied.

Use the examples below as a reference point.
CCCCCOc1ccc2cc(C(C)C(=O)O)ccc2c1 (stereo not shown) :: -13
CC(C)=CCOc1ccc2cc(C(C)C(=O)O)ccc2c1 (stereo not shown) :: -15

Prompt: Look up and report measured % Inhibition of CO (as PGE2) for this entry: CC(C(=O)O)c1ccc2cc(OCC=Cc3ccccc3)ccc2c1 (stereo not shown)
Response: 14

Prompt: Look up and report measured % Inhibition of CO (as PGE2) for this entry: CC(C(=O)O)c1ccc2cc(OCc3nc4ccccc4s3)ccc2c1 (stereo not shown)
Response: -35

Prompt: Look up and report measured % Inhibition of CO (as PGE2) for this entry: CC(C(=O)O)c1ccc2cc(OCc3ccccn3)ccc2c1 (stereo not shown)
Response: 18

Prompt: Look up and report measured % Inhibition of CO (as PGE2) for this entry: C[C@H](C(=O)O)c1ccc2cc(OCc3ccc4ccccc4n3)ccc2c1 [Example 7]
Response: -17

Prompt: Look up and report measured % Inhibition of CO (as PGE2) for this entry: CCCCOc1ccc2cc(C(C)C(=O)O)ccc2c1 (stereo not shown)
Response: -3

====

Overview of recorded Kb for various compounds
Biological target: LTD4 (Cavia porcellus, UniProt Q2NNR5)
Construct: isolated guinea pig trachea; from tissue; host or cells: guinea pig tracheal rings
Test: LTD4 antagonist activity in isolated guinea pig trachea
Assay type: cell-based
Conditions: 1 × 10^-5 M
Protocol: The LTD4 antagonist activity of the compounds of the invention is assessed in the in vitro isolated guinea pig trachea assay. Male Hartley guinea pigs (350-400 g) are euthanized by a blow to the head, the neck is opened and the trachea removed. […] The tracheal rings are maintained at 2 g resting tension and equilibrated for 45 minutes (with frequence washing and readjustment of resting tension). […]
Give a bare numeral; the unit nM is implied.

C[C@H](C(=O)N(C)O)c1ccc2cc(OCc3nc4ccccc4s3)ccc2c1 [Example 41, hydrate] :: 398

Prompt: Look up and report measured Kb for this entry: C[C@H](C(=O)N(C)O)c1ccc2cc(OCc3ccc4ccccc4n3)ccc2c1 [Example 24]
Response: 501

Prompt: Look up and report measured Kb for this entry: C[C@H](C(=O)O)c1ccc2cc(OCc3ccc4ccccc4n3)ccc2c1 [Example 17]
Response: 631

Prompt: Look up and report measured Kb for this entry: C[C@H](C(=O)N(C)O)c1ccc2cc(OCc3ccccn3)ccc2c1 [Example 44]
Response: 1580

Prompt: Look up and report measured Kb for this entry: C[C@H](C(=O)N(C)O)c1ccc2cc(OCc3nc4ccccc4o3)ccc2c1 [Example 47]
Response: 501

Prompt: Look up and report measured Kb for this entry: C[C@H](C(=O)N(C)O)c1ccc2cc(OCc3nc4ccccc4n3C)ccc2c1 [Example 45]
Response: 200

Prompt: Look up and report measured Kb for this entry: C[C@H](C(=O)N(C)O)c1ccc2cc(OCc3csc(-c4ccccc4)n3)ccc2c1 [Example 39]
Response: 10000

====

Overview of recorded pIC50 for various molecules
Target: 5-lipoxygenase (Rattus norvegicus)
Construct: Peritoneal PMN are obtained from female Wistar rats (150-250 g); endogenous in cells
Test: inhibition of 5-HETE synthesis by rat glycogen elicited polymorphonuclear leukocytes
Settings: rat PMN; read-out: IC50 (inhibition of 5-LO, as 5-HETE)
Reminder that pIC50 means the negative base-10 logarithm of the concentration expressed in mol/L.

COC(=O)C(C)c1ccc2cc(OCc3ccc4ccccc4n3)ccc2c1 (centres unmarked) [Example 28] :: 6.37

Lab note: next molecule to report on.
Prompt: Look up and report measured pIC50 for this entry: CC(C(=O)O)c1ccc2cc(OCc3ccc4ccc(Cl)cc4n3)ccc2c1 (centres unmarked) [Example 18]
Response: 4.94

====

Biological target: 5-lipoxygenase (Rattus norvegicus)
Construct: Peritoneal PMN are obtained from female Wistar rats (150-250 g); endogenous in cells; host or cells: rat glycogen-elicited peritoneal polymorphonuclear leukocytes, intact
Sequence (P12527 1-673): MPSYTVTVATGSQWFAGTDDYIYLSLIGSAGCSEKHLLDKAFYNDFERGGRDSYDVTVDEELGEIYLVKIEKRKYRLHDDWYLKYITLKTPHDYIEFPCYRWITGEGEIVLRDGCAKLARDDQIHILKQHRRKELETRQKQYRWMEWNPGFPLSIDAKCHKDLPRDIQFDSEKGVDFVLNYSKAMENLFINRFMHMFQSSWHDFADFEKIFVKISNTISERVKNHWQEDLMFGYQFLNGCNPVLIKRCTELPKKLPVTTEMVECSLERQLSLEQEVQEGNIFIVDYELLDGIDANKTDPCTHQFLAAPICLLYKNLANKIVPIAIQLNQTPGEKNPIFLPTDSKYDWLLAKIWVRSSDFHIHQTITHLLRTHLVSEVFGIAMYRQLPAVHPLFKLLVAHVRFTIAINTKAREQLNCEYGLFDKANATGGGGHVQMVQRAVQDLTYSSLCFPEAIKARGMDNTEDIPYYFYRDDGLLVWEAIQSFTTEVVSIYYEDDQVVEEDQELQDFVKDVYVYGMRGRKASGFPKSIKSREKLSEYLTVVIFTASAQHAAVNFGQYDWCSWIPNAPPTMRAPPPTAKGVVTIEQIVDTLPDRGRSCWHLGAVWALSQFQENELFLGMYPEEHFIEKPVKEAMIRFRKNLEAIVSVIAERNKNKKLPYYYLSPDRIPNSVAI
Experiment: inhibition of 5-HETE synthesis by rat glycogen elicited polymorphonuclear leukocytes
Format: cell-based
Details: 10 μM; rat PMN; negative = potentiation of 5-HETE synthesis; read-out: % Inhibition of 5-LO (as 5-HETE)
Attribute Measured: inhibition at 10 µM (%)
Give a bare numeral; the unit % is implied.

Use the examples below as a reference point.
O=C(O)Cc1ccc2cc(OCc3ccc4ccccc4n3)ccc2c1 :: 95
C[C@H](C(=O)N(C)O)c1ccc2cc(OCc3ccc4ccccc4n3)ccc2c1 :: 100
CC(C(=O)O)c1ccc2cc(OCc3ccc4ccccc4n3)ccc2c1 (stereo not drawn) :: 100
CC(C(=O)O)c1ccc2cc(OCc3ccccn3)ccc2c1 (stereo not drawn) :: 82
CC(C)(C(=O)O)c1ccc2cc(OCc3ccc4ccccc4n3)ccc2c1 :: 87

Prompt: Look up and report measured inhibition at 10 µM for this entry: CC(C(=O)O)c1ccc2cc(OCc3nc4ccccc4s3)ccc2c1 (stereo not drawn)
Response: 90

Prompt: Look up and report measured inhibition at 10 µM for this entry: CC(C(=O)O)c1ccc2cc(OCc3csc(-c4ccccc4)n3)ccc2c1 (stereo not drawn)
Response: 86

Prompt: Look up and report measured inhibition at 10 µM for this entry: CC(C(=O)N(C)O)c1ccc2cc(OCc3ccc4ccccc4n3)ccc2c1 (stereo not drawn)
Response: 75

Prompt: Look up and report measured inhibition at 10 µM for this entry: `COC(=O)[C@@H](C)c1ccc2cc(OCc3ccc4ccccc4n3)ccc2c1`
Response: 91
